target: Receptor tyrosine-protein kinase erbB-2 (Homo sapiens) (UniProt P04626); details: at 0.1 µM;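 note: each value is the mean percent inhibition of ERBB2 over replicate measurements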
Sequence (P04626 whole entry): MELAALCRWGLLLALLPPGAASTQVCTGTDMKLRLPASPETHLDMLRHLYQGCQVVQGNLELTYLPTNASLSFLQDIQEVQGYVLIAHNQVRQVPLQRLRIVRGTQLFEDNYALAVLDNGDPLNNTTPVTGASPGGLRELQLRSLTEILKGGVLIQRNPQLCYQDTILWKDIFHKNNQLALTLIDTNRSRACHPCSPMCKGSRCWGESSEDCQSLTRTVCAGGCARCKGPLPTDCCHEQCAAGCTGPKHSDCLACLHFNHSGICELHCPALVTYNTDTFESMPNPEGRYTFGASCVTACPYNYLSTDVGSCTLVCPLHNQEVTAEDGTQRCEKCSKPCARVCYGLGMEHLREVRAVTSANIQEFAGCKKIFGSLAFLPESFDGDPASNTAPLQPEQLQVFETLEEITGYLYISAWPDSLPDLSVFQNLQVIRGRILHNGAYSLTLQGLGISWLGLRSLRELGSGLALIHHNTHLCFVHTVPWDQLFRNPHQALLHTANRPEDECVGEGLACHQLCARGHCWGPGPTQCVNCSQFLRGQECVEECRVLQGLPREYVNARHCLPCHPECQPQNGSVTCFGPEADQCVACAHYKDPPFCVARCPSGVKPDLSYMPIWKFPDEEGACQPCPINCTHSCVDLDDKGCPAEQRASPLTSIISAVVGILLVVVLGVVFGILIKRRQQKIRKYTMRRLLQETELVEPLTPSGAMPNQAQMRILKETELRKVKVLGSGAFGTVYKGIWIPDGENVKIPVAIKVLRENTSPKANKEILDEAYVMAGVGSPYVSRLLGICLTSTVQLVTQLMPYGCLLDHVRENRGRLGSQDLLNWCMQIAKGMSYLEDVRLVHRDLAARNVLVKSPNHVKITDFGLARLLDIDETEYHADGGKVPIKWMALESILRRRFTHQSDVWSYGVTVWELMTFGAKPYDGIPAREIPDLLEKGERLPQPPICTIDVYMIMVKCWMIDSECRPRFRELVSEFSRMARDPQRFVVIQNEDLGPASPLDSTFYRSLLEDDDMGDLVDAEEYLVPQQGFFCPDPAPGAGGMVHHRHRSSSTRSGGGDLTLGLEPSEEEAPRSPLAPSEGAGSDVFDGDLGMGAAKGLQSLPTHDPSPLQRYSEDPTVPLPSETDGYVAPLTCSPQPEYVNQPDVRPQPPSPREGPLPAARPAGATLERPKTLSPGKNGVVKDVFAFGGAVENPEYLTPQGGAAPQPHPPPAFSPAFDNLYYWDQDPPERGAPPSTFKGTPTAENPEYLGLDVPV
Parameter: inhibition (%)
Quick note: give the figure in %, leave out the unit.

[[record]]
input_smiles = "COC(=O)Nc1nc2cc(Oc3ccc(NC(=O)Nc4cccc(Br)c4)cc3)ccc2[nH]1"
observed = 3.03

[[record]]
input_smiles = "FC(F)(F)c1ccc(-c2nn3ncccc3c2-c2ccnc(Nc3ccc4c(c3)OCCO4)n2)cc1"
observed = 3.02

[[record]]
input_smiles = "CN(c1ccc(NC(=O)Nc2ccc(OC(F)(F)F)cc2)cc1)c1ccnc(Nc2cccc(S(N)(=O)=O)c2)n1"
observed = 2.39

[[record]]
input_smiles = "N#Cc1c(NC(=O)c2ccccc2F)sc2c1CCCC2"
observed = -3.55

[[record]]
input_smiles = "COc1cc2ncnc(Nc3ccc4c(cnn4Cc4ccccc4)c3)c2cc1OC"
observed = 32.4


Let's switch to this compound now.
Prompt: Fill in the blank: the reported inhibition of COc1cc2ncn(-c3cc(OCc4ccccc4S(C)(=O)=O)c(C#N)s3)c2cc1OC is ____.
Response: 0.83

====

Measured inhibition by item
target: Ribosomal protein S6 kinase alpha-4 (Homo sapiens) (UniProt O75676); conditions: at 0.1 µM;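 note: values are mean inhibition of MSK2, from GSK PKIS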
Sequence (O75676 whole entry, looked up): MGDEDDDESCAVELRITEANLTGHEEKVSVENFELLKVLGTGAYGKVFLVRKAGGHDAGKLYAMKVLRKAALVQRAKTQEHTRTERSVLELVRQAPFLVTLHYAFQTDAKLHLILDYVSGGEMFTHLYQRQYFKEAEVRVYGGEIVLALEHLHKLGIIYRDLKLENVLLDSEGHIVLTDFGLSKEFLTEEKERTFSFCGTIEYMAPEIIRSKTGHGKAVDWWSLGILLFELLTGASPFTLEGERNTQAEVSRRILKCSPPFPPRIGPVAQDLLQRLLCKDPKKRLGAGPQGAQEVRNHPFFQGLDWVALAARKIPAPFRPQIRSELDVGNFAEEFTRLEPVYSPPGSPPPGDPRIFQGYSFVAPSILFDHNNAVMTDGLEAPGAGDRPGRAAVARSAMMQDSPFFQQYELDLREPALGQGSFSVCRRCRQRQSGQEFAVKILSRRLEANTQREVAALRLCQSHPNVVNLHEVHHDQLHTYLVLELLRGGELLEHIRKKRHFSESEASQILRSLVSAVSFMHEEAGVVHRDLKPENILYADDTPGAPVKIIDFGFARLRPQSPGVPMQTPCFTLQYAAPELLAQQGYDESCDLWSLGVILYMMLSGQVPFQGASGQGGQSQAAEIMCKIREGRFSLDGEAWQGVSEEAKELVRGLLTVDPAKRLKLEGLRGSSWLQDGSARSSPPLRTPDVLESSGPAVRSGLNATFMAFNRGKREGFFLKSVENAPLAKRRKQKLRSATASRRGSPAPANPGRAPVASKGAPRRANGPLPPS
// units = %; emit number, no label

// solved cases for inhibition follow
[[record]]
compound = "CCCN1CCCC(c2ccc(Nc3nc(Nc4cc(F)ccc4C(N)=O)c4cc[nH]c4n3)c(OC)c2)C1 (stereo unspecified)"
observed = 1.64

[[record]]
compound = "Nc1nccc(C#Cc2cncnc2Nc2ccc(OCc3cccc(F)c3)c(Cl)c2)n1"
observed = 1.39

[[record]]
compound = "O=C1Nc2ccccc2/C1=C/Nc1ccc2[nH]c(=O)[nH]c2c1"
observed = 3.86

[[record]]
compound = "Cc1ccc2c(c1)/C(=N/Nc1ccc(S(N)(=O)=O)cc1)C(=O)N2"
observed = -1.41


Prompt: Query (compound): NS(=O)(=O)c1ccc(N/N=C2\C(=O)Nc3ccc(Cl)cc32)cc1 ; field requested: inhibition
Response: 2.66

Prompt: Reported inhibition for O=C1Nc2ccc(-c3cccnc3)cc2C1=Cc1cc(Br)c(O)c(Br)c1 : what is it?
Response: 0.89

Prompt: Please look up its inhibition: C[C@@H](Oc1cc(-n2cnc3ccc(OC[C@@H](O)CO)cc32)sc1C(N)=O)c1ccccc1Cl
Response: 0.35

Prompt: Fill in the blank: the reported inhibition of COc1ccc2ncnc(Nc3ccc(OCc4ccccc4)cc3)c2c1 is ____.
Response: -3.48

====

List of inhibition values.
molecular target: Aurora kinase C (Homo sapiens) (UniProt Q9UQB9); conditions: at 1 µM;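 note: reported value is a mean inhibition of Aurora-C from the GSK PKIS screening panel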
Sequence (Q9UQB9 whole entry): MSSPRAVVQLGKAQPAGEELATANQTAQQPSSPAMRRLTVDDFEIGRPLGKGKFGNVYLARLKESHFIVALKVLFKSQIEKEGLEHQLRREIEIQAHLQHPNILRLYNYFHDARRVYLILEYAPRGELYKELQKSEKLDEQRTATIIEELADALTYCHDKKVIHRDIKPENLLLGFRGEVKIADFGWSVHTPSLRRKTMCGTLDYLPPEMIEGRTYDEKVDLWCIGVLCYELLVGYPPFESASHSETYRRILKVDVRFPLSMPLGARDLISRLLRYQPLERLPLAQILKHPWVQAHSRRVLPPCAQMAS
Reply numerically in %, unit not repeated.

Reference set (6 entries):
[[record]]
input_smiles = "COc1cc2ncn(-c3cc(OCc4ccccc4S(C)(=O)=O)c(C#N)s3)c2cc1OC"
unit_of_measurement = "%"
observed = 93.8

[[record]]
input_smiles = "Cc1ccc(C(=O)NC2CC2)cc1-c1ccc2[nH]ncc2c1"
unit_of_measurement = "%"
observed = 0.5

[[record]]
input_smiles = "Cc1cc(O)cc(C)c1/C=C/c1cncc(C(=O)N(C)C)c1"
unit_of_measurement = "%"
observed = 2.63

[[record]]
input_smiles = "N#Cc1c(NC(=O)c2ccccc2F)sc2c1CCCC2"
unit_of_measurement = "%"
observed = 0.91

[[record]]
input_smiles = "CCOc1nccc2c1nc(-c1nonc1N)n2CC"
unit_of_measurement = "%"
observed = -5.69

[[record]]
input_smiles = "Cc1cc(Cl)cc2c1NC(=O)C2=NNc1ccc(S(N)(=O)=O)cc1"
unit_of_measurement = "%"
observed = -3.99


Prompt: Tell me reported inhibition for O=C(Nc1ccc(Oc2ccc3[nH]c(NC(=O)c4ccco4)nc3c2)cc1)Nc1cc(C(F)(F)F)ccc1F , tested with Aurora kinase C (Homo sapiens) (UniProt Q9UQB9).
Response: 82.4
